Values from ChEMBL document CHEMBL2346531

Entries and their EC50 values follow.
System: MCF7
ASSAY_NOTES: Antiproliferative activity against human MCF7 cells after 48 hrs by MTT assay
Format: functional, cell-based
CONDITION_CONTEXT: Homo sapiens, MCF7, 48 h
ATTRIBUTE_MEASURED: EC50

MOLECULE: COc1cccc2c1CCCC2CCCN1CCN(C2CCCCC2)CC1 (configuration not stated)
MEAS_VALUE: 27.4 µM
--
MOLECULE: c1ccc(CCN2CCCCC2)cc1
MEAS_VALUE: > 100 µM
--
MOLECULE: COc1ccc2c(CCCN3C(C)(C)CCCC3(C)C)cccc2c1
MEAS_VALUE: > 100 µM
--
MOLECULE: CC(C)=CCN1CC[C@]2(C)c3cc(O)ccc3C[C@H]1[C@H]2C [(+)-PENTAZOCINE]
MEAS_VALUE: > 100 µM
--
MOLECULE: COc1ccc2c(CCCCN3CCCCC3(C)C)cccc2c1
MEAS_VALUE: 100 µM
--
MOLECULE: COc1ccc2c(c1)CCCC2CCCCN1CCCCC1(C)C (configuration not stated)
MEAS_VALUE: 100 µM
--
MOLECULE: COc1ccc2c(CCCN3CCCCC3(C)C)cccc2c1
MEAS_VALUE: > 100 µM
--
MOLECULE: COc1ccc2c(c1)CCCC2CCCN1C(C)(C)CCCC1(C)C (configuration not stated)
MEAS_VALUE: > 100 µM
--
MOLECULE: COc1ccc2c(CCCCN3[C@H](C)CCC[C@@H]3C)cccc2c1.Cl
MEAS_VALUE: 100 µM
--
MOLECULE: COc1ccc2c(c1)CCCC2CCCN1CCCCC1(C)C (configuration not stated)
MEAS_VALUE: > 100 µM
--
MOLECULE: COc1ccc2c(c1)CCCC2CCCCN1C(C)(C)CCCC1(C)C (configuration not stated)
MEAS_VALUE: > 100 µM
--
MOLECULE: COc1ccc2c(CCCCN3C(C)(C)CCCC3(C)C)cccc2c1
MEAS_VALUE: > 100 µM

###

ASSAY_NOTES: Selectivity ratio of Ki for sigma 2 receptor in Wistar Hannover rat liver membrane to Ki for sigma 1 receptor in Dunkin guinea pig brain membrane without cerebellum
Assay type: cell membranes
ATTRIBUTE_MEASURED: Ratio Ki

COMPOUND: COc1ccc2c(CCCCN3C(C)(C)CCCC3(C)C)cccc2c1
MEAS_VALUE: 1
--
COMPOUND: COc1ccc2c(c1)CCCC2CCCCN1C(C)(C)CCCC1(C)C (configuration not stated)
MEAS_VALUE: 1.9
--
COMPOUND: COc1ccc2c(CCCN3[C@H](C)CCC[C@@H]3C)cccc2c1
MEAS_VALUE: 6.1
--
COMPOUND: COc1ccc2c(c1)CCCC2CCCCN1[C@H](C)CCC[C@@H]1C (some centres not stated)
MEAS_VALUE: 1.3
--
COMPOUND: COc1ccc2c(CCCN3C(C)(C)CCCC3(C)C)cccc2c1
MEAS_VALUE: 2.1
--
COMPOUND: COc1ccc2c(CCCCN3[C@H](C)CCC[C@@H]3C)cccc2c1.Cl
MEAS_VALUE: 0.7
--
COMPOUND: COc1ccc2c(c1)CCCC2CCCN1[C@H](C)CCC[C@@H]1C (some centres not stated)
MEAS_VALUE: 0.8
--
COMPOUND: COc1ccc2c(c1)CCCC2CCCCN1CCCCC1(C)C (configuration not stated)
MEAS_VALUE: 9
--
COMPOUND: COc1ccc2c(c1)CCCC2CCCN1CCCCC1(C)C (configuration not stated)
MEAS_VALUE: 0.6
--
COMPOUND: COc1ccc2c(CCCN3CCCCC3(C)C)cccc2c1
MEAS_VALUE: 0.09
--
COMPOUND: COc1ccc2c(c1)CCCC2CCCN1C(C)(C)CCCC1(C)C (configuration not stated)
MEAS_VALUE: 1.7
--
COMPOUND: COc1ccc2c(CCCCN3CCCCC3(C)C)cccc2c1
MEAS_VALUE: 1.3
